// provenance: patent US9605013B2

Test system: Enterococcus faecalis BKM B-871
assay method text: Antibacterial activity, serial dilutions in liquid MH medium
Type: cell-based
condition notes: MH medium, 20 h, 37° C., 100% growth inhibition
Field: MIC. Provide a value for each of the molecules that follow.
Please reply with the bare figure in µM and do not write the unit itself.

-- ask Need MIC, item C=CC1=C(C)C2=Cc3c(C=C)c(C)c4[n]3[Fe]([Cl])[n]3c(c(C)c(CCC(=O)N[C@@H](CCCNC(=N)N)C(=O)OC)c3=CC3=NC(=C4)C(C)=C3CCC(=O)N[C@@H](CCCNC(=N)N)C(=O)OC)=CC1=N2 [XV, reference compound]
-- reply 50

-- ask And for C=CC1=C(C)C2=Cc3c(C=C)c(C)c4[n]3[Fe]([Cl])[n]3c(c(C)c(CCC(=O)N[C@@H](CO)C(=O)OC)c3=CC3=NC(=C4)C(C)=C3CCC(=O)N[C@@H](CO)C(=O)OC)=CC1=N2 [XVIII, reference compound] ?
-- reply 12.5

-- ask And for C=CC1=C(C)c2cc3[n-]c(cc4[n-]c(cc5nc(cc1n2)C(C)=C5C=C)c(C)c4CCC(=O)N[C@@H](CCCNC(=N)N)C(N)=O)c(CCC(=O)N[C@@H](CCCNC(=N)N)C(N)=O)c3C.[Cl-].[Fe+3] ?
-- reply 6.3

-- ask And for C=CC1=C(C)C2=Cc3c(C=C)c(C)c4[n]3[Fe]([Cl])[n]3c(c(C)c(CCC(=O)N[C@@H](CCC(=O)N[C@@H](CCCNC(=N)N)C(=O)OC)C(=O)N[C@@H](CCCNC(=N)N)C(=O)OC)c3=CC3=NC(=C4)C(C)=C3CCC(=O)N[C@@H](CCC(=O)N[C@@H](CCCNC(=N)N)C(=O)OC)C(=O)N[C@@H](CCCNC(=N)N)C(=O)OC)=CC1=N2 [XVI, reference compound] ?
-- reply 12.5

-- ask And for C=CC1=C(C)C2=Cc3c(C=C)c(C)c4[n]3[Fe]([Cl])[n]3c(c(C)c(CCC(=O)NCC(=O)OC)c3=CC3=NC(=C4)C(C)=C3CCC(=O)NCC(=O)OC)=CC1=N2 [XVII, reference compound] ?
-- reply 100

* * *

Field: MIC. Provide a value for each of the compounds that follow.
Test system: Staphylococcus aureus No. 25923 ATCC
assay method text: Antibacterial specific activity, twofold dilutions, visual growth evaluation
Type: cell-based
condition notes: S. aureus 25923; 36° C., 24 hours
Please reply with the bare figure in µM and do not write the unit itself.

-- ask Test system Staphylococcus aureus No. 25923 ATCC; read-out MIC; what value for C=CC1=C(C)c2cc3[n-]c(cc4[n-]c(cc5nc(cc1n2)C(C)=C5C=C)c(C)c4CCC(=O)N[C@@H](CO)C(N)=O)c(CCC(=O)N[C@@H](CO)C(N)=O)c3C.[Cl-].[Fe+3] [V] ?
-- reply 0.78

-- ask And for C=CC1=C(C)c2cc3[n-]c(cc4[n-]c(cc5nc(cc1n2)C(C)=C5C=C)c(C)c4CCC(=O)N[C@@H](CO)C(=O)O)c(CCC(=O)N[C@@H](CO)C(=O)O)c3C.[Cl-].[Fe+3] [VI, 6,7-bis-(N^α-Seryl]-Protohemin (IX)] ?
-- reply 12.5

-- ask And for C=CC1=C(C)C2=Cc3c(C=C)c(C)c4[n]3[Fe]([Cl])[n]3c(c(C)c(CCC(=O)N[C@@H](CCCNC(=N)N)C(=O)OC)c3=CC3=NC(=C4)C(C)=C3CCC(=O)N[C@@H](CCCNC(=N)N)C(=O)OC)=CC1=N2 [XV, reference compound] ?
-- reply 25

-- ask And for C=CC1=C(C)C2=Cc3c(C=C)c(C)c4[n]3[Fe]([Cl])[n]3c(c(C)c(CCC(=O)NCC(=O)OC)c3=CC3=NC(=C4)C(C)=C3CCC(=O)NCC(=O)OC)=CC1=N2 [XVII, reference compound] ?
-- reply 25

-- ask And for C=CC1=C(C)c2cc3[n-]c(cc4[n-]c(cc5nc(cc1n2)C(C)=C5C=C)c(C)c4CCC(=O)N[C@@H](CCCNC(=N)N)C(N)=O)c(CCC(=O)N[C@@H](CCCNC(=N)N)C(N)=O)c3C.[Cl-].[Fe+3] [II] ?
-- reply 1.04

-- ask And for C=CC1=C(C)c2cc3[n-]c(cc4[n-]c(cc5nc(cc1n2)C(C)=C5C=C)c(C)c4CCC(=O)N[C@@H](CCC(=O)NCCO)C(=O)NCCO)c(CCC(=O)N[C@@H](CCC(=O)NCCO)C(=O)NCCO)c3C.[Cl-].[Fe+3] [XI] ?
-- reply 0.39
